Provide the reported EC50 (nM), endogenous B cell depletion in PBMC (FIG. 16A) of each item.
Biological target: T1, canine CD20 on cells (HEK293, MDCK II, CLBL-1 or native B cells) (canine, UniProt Q3C2E2 1-297)
T1 chain: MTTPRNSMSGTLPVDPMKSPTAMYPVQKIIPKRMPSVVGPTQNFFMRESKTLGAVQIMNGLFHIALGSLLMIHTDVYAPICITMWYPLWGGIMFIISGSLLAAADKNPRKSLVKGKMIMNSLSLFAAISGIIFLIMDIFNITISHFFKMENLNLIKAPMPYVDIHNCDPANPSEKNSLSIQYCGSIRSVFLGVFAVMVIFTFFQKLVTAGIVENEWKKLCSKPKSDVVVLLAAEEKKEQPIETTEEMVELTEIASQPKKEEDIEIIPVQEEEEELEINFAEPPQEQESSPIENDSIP
Assay: cell-based or functional assay
One number for each entry, in nM.

[
  {
    "Binder": "PMX172VH/PMX264VH/PMX172VL (bispecific antibody, V domains shown) VH 1: EVQLVESGGDLVKPGGSLRLSCVASGFTFSSYHMSWVRQAPGKGLQWVAYSNSGGSRTSYADAVKGRFTISRDNAKNTLYLQMNSLRAEDTAVYYCASEGGGGRYGYKDYGMDYWGHGTSLFVSS VH 2: EVQLVESGGDLVKPGGSLRLSCVASGFTFSRYHMSWVRQAPGKGLQWVAFINTGRMSTNYADAVKGRFTISRDNAKNTLYLQMNSLRAEDTAVYYCTSLDYWGQGTLVTVSS VL: SYVLTQLPSKNVTLKQPAHITCGGDNIGSKSVHWYQQKLGQAPVLIIYYDSSRPTGIPERFSGANSGNTATLTISGALAEDEADYYCQVWDSSAKAWVFGEGTQLTVL",
    "Reported Measurement": 0.828
  }
]

I'm hoping you can list EC50 (nM), endogenous B cell depletion in PBMC (FIG. 16A) for every binder here, please.
1. PMX172VH/PMX262VH/PMX172VL (bispecific antibody, V domains shown) VH 1: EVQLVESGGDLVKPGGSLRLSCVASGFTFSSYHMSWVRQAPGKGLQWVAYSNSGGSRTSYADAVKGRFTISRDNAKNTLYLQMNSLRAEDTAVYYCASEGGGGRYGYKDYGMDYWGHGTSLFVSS VH 2: EVQLVESGGDLVKPGGSLRLSCVASGITFSRYYMNWVRQAPGKGLQWVAYINSGGSPTTYADAVKGRFTISRDNAKNTLYLQMNSLRAEDTAVYYCTSFDYWGQGTLVTVSS VL: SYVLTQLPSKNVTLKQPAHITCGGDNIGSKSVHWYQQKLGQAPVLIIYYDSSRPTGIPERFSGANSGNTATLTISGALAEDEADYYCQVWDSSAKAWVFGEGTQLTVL
2. PMX172VH/PMX268VH/PMX172VL (bispecific antibody, V domains shown) VH 1: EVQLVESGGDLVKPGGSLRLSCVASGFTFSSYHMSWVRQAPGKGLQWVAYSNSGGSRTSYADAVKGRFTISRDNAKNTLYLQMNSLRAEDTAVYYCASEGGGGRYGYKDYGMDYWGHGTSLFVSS VH 2: EVQLVESGGDLMKPGGSLRLSCVASGITFSGYHMSWVRQAPGKGLQWVAFINSGRKNTAYADAVKGRFTISRDNAKNTLYLQMNSLRAEDTAIYYCTTLEFWGQGTLVTVSS VL: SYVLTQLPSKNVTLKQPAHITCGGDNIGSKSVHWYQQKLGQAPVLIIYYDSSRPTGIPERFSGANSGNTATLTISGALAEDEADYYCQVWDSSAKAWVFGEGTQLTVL

0.247
0.764
